The following binders are shown together with reported cAMP release, % activity with respect to control, at 1 nM values.
# Target system: human GLP-1 receptor (human, UniProt P43220 24-463)
# Method notes: cell-based or functional assay
Where no end group is shown, it is not given here. [ ]: non-standard residue; d: D form. Bip(2'-Et-4'-OMe) = CCc1cc(OC)ccc1-c1ccc(C[C@H](N)C(=O)O)cc1; αMePhe(2-F) = C[C@](N)(Cc1ccccc1F)C(=O)O; αMeBip(OMe) = alpha-methylated Bip(OMe); hhPhe = N[C@@H](CCCc1ccccc1)C(=O)O; αMeD = C[C@](N)(CC(=O)O)C(=O)O; αMeP = C[C@@]1(C(=O)O)CCCN1; αMeAPPA = not defined here; αMeS = C[C@](N)(CO)C(=O)O

These solved cases illustrate the format of a correct answer.
{"columns": ["Binder", "Assay value"],
 "data": [
  ["VHAEGTFTSD[αMeBip(OMe)][hhPhe] (not fully specified (C-terminus); printed as VHAEGTFTSD-(αMe-Bip(OMe))-(APPA)) [Seq. ID. No. 12]", "51 % of control"],
  ["VH[αMeP]EGTFTS[αMeD][αMeBip(OMe)][hhPhe]-NH2 [Seq. ID. No. 64]", "45 % of control"],
  ["VHSEGTFTSD[αMeBip(OMe)][hhPhe] (not fully specified (C-terminus); printed as VHSEGTFTSD-(αMe-Bip(OMe))-(APPA)) [Seq. ID. No. 11]", "39 % of control"]
]}

Shift focus to the following entry.
Query string: Fill in cAMP release, % activity with respect to control, at 1 nM for record VH[αMeP]EGT[αMePhe(2-F)]T[αMeS][αMeD][Bip(2'-Et-4'-OMe)][αMeAPPA] (not fully specified (C-terminus); reading uncertain) [Seq. ID. No. 122]
Result string: 96 % of control
